Sourced from paper PMC7892445

Target: UniProtKB P43144
Experiment: Two-electrode voltage clamp, recombinant homomeric receptor in X. laevis oocytes
Conditions: Rat α9; −70 mV, BAPTA-AM treated oocytes; mean ± SEM
reported_metric: EC50 (µM)
One number for each entry, in µM.

*Q* Assign EC50 to the following record: C[N+](C)(C)CCO [Choline, choline]
*A* 188

---

Target: rat α9–chicken α10 hybrid receptor (Rα9-Cα10) (UniProt P43144+Q9I8C7)
Sequence (P43144 26-479): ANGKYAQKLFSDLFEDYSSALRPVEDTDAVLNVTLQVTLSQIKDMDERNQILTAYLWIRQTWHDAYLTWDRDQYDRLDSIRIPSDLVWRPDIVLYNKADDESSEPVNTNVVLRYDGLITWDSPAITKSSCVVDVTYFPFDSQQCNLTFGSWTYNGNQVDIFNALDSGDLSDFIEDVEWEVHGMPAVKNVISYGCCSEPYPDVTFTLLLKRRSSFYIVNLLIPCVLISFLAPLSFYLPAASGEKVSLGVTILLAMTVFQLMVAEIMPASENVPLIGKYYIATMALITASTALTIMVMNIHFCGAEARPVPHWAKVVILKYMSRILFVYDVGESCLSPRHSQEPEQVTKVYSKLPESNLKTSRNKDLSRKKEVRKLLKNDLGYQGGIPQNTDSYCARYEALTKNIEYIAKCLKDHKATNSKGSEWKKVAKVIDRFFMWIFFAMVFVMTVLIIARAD
Sequence (Q9I8C7 27-452): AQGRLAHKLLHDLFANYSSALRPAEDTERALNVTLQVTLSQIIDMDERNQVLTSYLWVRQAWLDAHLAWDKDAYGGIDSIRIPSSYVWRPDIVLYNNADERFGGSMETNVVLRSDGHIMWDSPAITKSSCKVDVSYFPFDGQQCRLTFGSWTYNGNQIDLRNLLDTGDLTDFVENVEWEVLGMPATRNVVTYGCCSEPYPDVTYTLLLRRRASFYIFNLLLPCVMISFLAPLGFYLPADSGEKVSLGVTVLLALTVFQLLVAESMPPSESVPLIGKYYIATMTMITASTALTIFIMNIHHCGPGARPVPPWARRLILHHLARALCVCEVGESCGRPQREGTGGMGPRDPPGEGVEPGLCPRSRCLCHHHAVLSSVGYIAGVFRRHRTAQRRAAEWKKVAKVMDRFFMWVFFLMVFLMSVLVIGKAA
Assay: Two-electrode voltage clamp, hybrid receptor in X. laevis oocytes
Conditions: Rα9-Cα10 hybrid; mean ± SEM
reported_metric: EC50

input_smiles | reported_metric | val
CC(=O)OCC[N+](C)(C)C | EC50 | 11.6 µM

*Q* Quickly give me recorded EC50 for C[N+](C)(C)CCO
*A* 148 µM

---

Biological target: Chicken α9α10 nAChR (Gallus gallus, UniProt Q9I8C7+Q9PTS8)
Construct: expressed in transfected cells; host or cells: Xenopus laevis oocytes (cRNA injection, 1:1 molar ratio)
Sequence (Q9PTS8 28-484): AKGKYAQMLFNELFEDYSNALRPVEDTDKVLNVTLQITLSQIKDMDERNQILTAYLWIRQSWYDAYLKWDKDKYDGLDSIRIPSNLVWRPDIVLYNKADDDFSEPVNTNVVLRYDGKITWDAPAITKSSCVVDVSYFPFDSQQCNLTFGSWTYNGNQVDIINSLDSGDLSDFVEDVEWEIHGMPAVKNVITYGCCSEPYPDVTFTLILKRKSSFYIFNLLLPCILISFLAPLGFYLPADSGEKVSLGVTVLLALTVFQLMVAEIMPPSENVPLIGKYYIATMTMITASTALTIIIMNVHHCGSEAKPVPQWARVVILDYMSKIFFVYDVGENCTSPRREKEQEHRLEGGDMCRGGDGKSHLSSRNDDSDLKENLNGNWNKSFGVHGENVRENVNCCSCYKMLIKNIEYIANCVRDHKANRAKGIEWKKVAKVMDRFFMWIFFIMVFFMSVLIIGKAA
Sequence (Q9I8C7 27-452): as the sequence (Q9I8C7 27-452) above
Experiment: Two-electrode voltage clamp, recombinant heteromeric receptor in X. laevis oocytes
Type: cell-based
Conditions: Chicken α9α10; mean ± SEM; read-out: EC50
For each record, write down the corresponding pEC50.
Numbers only, as −log10 of the molar value.

compound | pEC50
C[N+](C)(C)CCO [Choline, choline] | 3.70
C[N+](C)(C)CCOC(N)=O [Carbachol, carbachol] | 3.82

Attention now turns to another entry.
*Q* Return value of pEC50 for input C[N+]1(C)CCN(c2ccccc2)CC1 [DMPP] , no commentary.
*A* 5.01

---

Molecular target: chicken α9–rat α10 hybrid receptor (Cα9-Rα10) (UniProt Q9JLB5+Q9PTS8)
Sequence (Q9JLB5 25-447, one chain of several): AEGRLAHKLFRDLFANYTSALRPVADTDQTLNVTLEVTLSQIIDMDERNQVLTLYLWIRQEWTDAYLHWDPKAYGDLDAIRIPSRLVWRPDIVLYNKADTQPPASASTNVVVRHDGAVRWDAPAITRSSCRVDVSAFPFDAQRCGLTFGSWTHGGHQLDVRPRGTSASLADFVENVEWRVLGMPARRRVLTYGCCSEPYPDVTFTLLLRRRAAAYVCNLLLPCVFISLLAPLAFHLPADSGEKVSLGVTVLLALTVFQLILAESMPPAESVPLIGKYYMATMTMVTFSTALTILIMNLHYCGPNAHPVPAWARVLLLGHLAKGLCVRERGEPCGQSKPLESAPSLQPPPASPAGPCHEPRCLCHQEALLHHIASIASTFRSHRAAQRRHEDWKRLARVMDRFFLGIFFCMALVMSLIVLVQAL
Assay: Two-electrode voltage clamp, hybrid receptor in X. laevis oocytes
Conditions: Cα9-Rα10 hybrid; mean ± SEM
reported_metric: EC50 (µM)
Give bare numbers, in µM.

*Q* Tell us which EC50 value is on record for C[N+](C)(C)CCO
*A* 333

---

Biological target: UniProt Q9PTS8
Experiment: Two-electrode voltage clamp, recombinant homomeric receptor in X. laevis oocytes
Conditions: mean ± SEM
Protocol: For expression studies, rat and chicken α9 and α10 nAChR subunits subcloned into a modified pGEMHE vector were used. Capped cRNAs were in vitro transcribed from linearized plasmid DNA templates using RiboMAX™ Large Scale RNA Production System (Promega, Madison, WI, USA). The maintenance of X. laevis and the preparation and cRNA injection of stage V and VI oocytes have been described in detail elsewhere (Verbitsky et al., [2000]). […] Data were analyzed using Clampfit from the pClamp 6.1 software. […]
reported_metric: EC50 (µM)
Give bare numbers, in µM.

input_smiles | scale_unit | EC50
C[N+](C)(C)CCO | µM | 280

Now consider the entry below.
*Q* Give the reported value of EC50 for this record: CC(=O)OCC[N+](C)(C)C
*A* 12.9

---

Molecular target: Chicken α10 homomeric nAChR (Gallus gallus, UniProt Q9I8C7)
Assay: Two-electrode voltage clamp, recombinant homomeric receptor in X. laevis oocytes
Conditions: mean ± SEM
Experimental: For expression studies, rat and chicken α9 and α10 nAChR subunits subcloned into a modified pGEMHE vector were used. Capped cRNAs were in vitro transcribed from linearized plasmid DNA templates using RiboMAX™ Large Scale RNA Production System (Promega, Madison, WI, USA). The maintenance of X. laevis and the preparation and cRNA injection of stage V and VI oocytes have been described in detail elsewhere (Verbitsky et al., [2000]). […] Data were analyzed using Clampfit from the pClamp 6.1 software. […]
For each record, write down the corresponding EC50.
Numbers only, in µM.

input_smiles | study_target | val
CC(=O)OCC[N+](C)(C)C | Chicken α10 homomeric nAChR (Gallus gallus, UniProt Q9I8C7) | 2.2

*Q* Give the value of EC50 reported for the following: C[N+](C)(C)CCO
*A* 23.2

---

Biological target: Chicken α9α10 nAChR (Gallus gallus, UniProt Q9I8C7+Q9PTS8)
Construct: expressed in transfected cells; host or cells: Xenopus laevis oocytes (cRNA injection, 1:1 molar ratio)
Assay: Two-electrode voltage clamp, recombinant heteromeric receptor in X. laevis oocytes
Type: cell-based
Protocol: For expression studies, rat and chicken α9 and α10 nAChR subunits subcloned into a modified pGEMHE vector were used. Capped cRNAs were in vitro transcribed from linearized plasmid DNA templates using RiboMAX™ Large Scale RNA Production System (Promega, Madison, WI, USA). The maintenance of X. laevis and the preparation and cRNA injection of stage V and VI oocytes have been described in detail elsewhere (Verbitsky et al., [2000]). […] Data were analyzed using Clampfit from the pClamp 6.1 software. […]
reported_metric: pEC50
Answers are plain numbers, as −log10 of the molar value.

*Q* Determine its reported pEC50: CC(=O)OCC[N+](C)(C)C
*A* 4.88
